System: MPNST multicellular tumor spheroids, viability % test/control
Assay: Anticancer human tumor MPNST cell line growth inhibition; active means viability on the fitted dose curve at most 10% of control; inactive means the rest;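 further: luminescence signal used as surrogate for viable cell amount; spheroids exposed to agents for seven days after three days of growth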
Details: second compound 94.9 pM; first compound 10 µM
Classes used: active, inactive

[[record]]
compound = "[2H]c1nc(C)nc([2H])c1-c1cc(NC[C@@H](C)c2cccc3c(C(=O)NC)ccnc23)ncn1 + COc1cc2c(cc1O)CCNC21CSC2c3c(OC(C)=O)c(C)c4c(c3C(COC1=O)N1C(O)C3Cc5cc(C)c(OC)c(O)c5C(C21)N3C)OCO4"
label = "inactive"

[[record]]
compound = "COc1cc(C)[nH]c(=O)c1CN1CCc2c(Cl)cc(C(OC)C3COC3)c(Cl)c2C1=O (stereo unspecified) + COc1cc2c(cc1O)CCNC21CSC2c3c(OC(C)=O)c(C)c4c(c3C(COC1=O)N1C(O)C3Cc5cc(C)c(OC)c(O)c5C(C21)N3C)OCO4"
label = "inactive"

[[record]]
compound = "COc1ccc([C@@H](O)c2cc(-c3ncnc4cc(N5CCOCC5)ccc34)c(F)cc2Cl)nn1 + COc1cc2c(cc1O)CCNC21CSC2c3c(OC(C)=O)c(C)c4c(c3C(COC1=O)N1C(O)C3Cc5cc(C)c(OC)c(O)c5C(C21)N3C)OCO4"
label = "active"

[[record]]
compound = "Cc1cc(C)c(CNC(=O)c2cc(-c3ccc(CN4CCOCC4)cc3)cc3c2cnn3C2CCCC2)c(=O)[nH]1 + COc1cc2c(cc1O)CCNC21CSC2c3c(OC(C)=O)c(C)c4c(c3C(COC1=O)N1C(O)C3Cc5cc(C)c(OC)c(O)c5C(C21)N3C)OCO4"
label = "inactive"

[[record]]
compound = "CC1COCCN1c1cc(-c2ccnn2C)c2ccnc(-c3ccn[nH]3)c2n1 (stereo unspecified) + COc1cc2c(cc1O)CCNC21CSC2c3c(OC(C)=O)c(C)c4c(c3C(COC1=O)N1C(O)C3Cc5cc(C)c(OC)c(O)c5C(C21)N3C)OCO4"
label = "inactive"

[[record]]
compound = "CC(C)n1c(=O)n(C)c2cnc3cc(F)c(-c4ccc(OCCCN5CCCCC5)nc4)cc3c21 + COc1cc2c(cc1O)CCNC21CSC2c3c(OC(C)=O)c(C)c4c(c3C(COC1=O)N1C(O)C3Cc5cc(C)c(OC)c(O)c5C(C21)N3C)OCO4"
label = "inactive"


###

Test system: MPNST multicellular tumor spheroids, viability % test/control
Assay: Anticancer human tumor MPNST cell line growth inhibition;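 further: luminescence signal used as surrogate for viable cell amount; spheroids exposed to agents for seven days after three days of growth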
Conditions: second compound 3.16 µM; first compound 3.16 µM; hits give low values
Catalogue of viability, T/C values
VALUE KIND: viability, T/C (%)

[[record]]
molecule = "COc1cc(C)[nH]c(=O)c1CN1CCc2c(Cl)cc(C(OC)C3COC3)c(Cl)c2C1=O (stereo unspecified) + Cn1nnc2c(C(N)=O)ncn2c1=O"
measurement_unit = "%"
reported = 150

[[record]]
molecule = "[2H]c1nc(C)nc([2H])c1-c1cc(NC[C@@H](C)c2cccc3c(C(=O)NC)ccnc23)ncn1 + Cn1nnc2c(C(N)=O)ncn2c1=O"
measurement_unit = "%"
reported = 89.8

[[record]]
molecule = "Cc1cc(C)c(CNC(=O)c2cc(-c3ccc(CN4CCOCC4)cc3)cc3c2cnn3C2CCCC2)c(=O)[nH]1 + Cn1nnc2c(C(N)=O)ncn2c1=O"
measurement_unit = "%"
reported = 103

[[record]]
molecule = "CC1COCCN1c1cc(-c2ccnn2C)c2ccnc(-c3ccn[nH]3)c2n1 (stereo unspecified) + Cn1nnc2c(C(N)=O)ncn2c1=O"
measurement_unit = "%"
reported = 31

[[record]]
molecule = "CC(C)n1c(=O)n(C)c2cnc3cc(F)c(-c4ccc(OCCCN5CCCCC5)nc4)cc3c21 + Cn1nnc2c(C(N)=O)ncn2c1=O"
measurement_unit = "%"
reported = 84.9

[[record]]
molecule = "COc1ccc([C@@H](O)c2cc(-c3ncnc4cc(N5CCOCC5)ccc34)c(F)cc2Cl)nn1 + Cn1nnc2c(C(N)=O)ncn2c1=O"
measurement_unit = "%"
reported = 35.9

